# measurementProtocol: qHTS assay to identify inhibitors of the type 1 interferon - major histocompatibility complex class I in skeletal muscle: Counter screen cell viability and HiBit confirmation (AID 1347412); also: potency is read from the fitted curve at half-maximal effect; nearly all actives have a fitted effect of over 60% in size
# protocolConditions: iHSKM muscle cells + IFN-b, HiBiT or CellTiter-Glo, 24 h; Viability
# From the text: […]
Records with an inconclusive call do not appear. Calls of active or inactive are those of the source. Calls follow the shape of the dose curve; as a rule, active = well fitted inhibition curve with a large enough effect; inconclusive = small, poorly fitted or top-dose-only effect; inactive = no such curve, though single readings can be large or run the other way.
Would you kindly list Potency for each of these compounds?

# example entries with known answers
smilestext=CCN(CC)CCNC(=O)c1c(C)[nH]c(/C=C2/C(=O)Nc3ccc(-c4csc(-c5ccccc5)n4)cc32)c1C result="24.9 µM (active)"
smilestext=COc1cc2c(NC3CCN(C4CCCCC4)CC3)nc(N3CCCN(C(C)C)CC3)nc2cc1OCCCN1CCCCC1 result="24.9 µM (active)"
smilestext=CCCc1cc(C(=O)N[C@H](Cc2ccc(-c3cccc(OC(F)(F)F)c3)nc2)C(=O)N[C@@H]2CCNC2)sc1C result="35.2 µM (active)"
smilestext=CC[C@@H](C)[C@H]1O[C@]2(CC[C@@H]1C)C[C@@H]1C[C@@H](C/C=C(\C)[C@@H](O[C@@H]3C[C@H](OC)[C@H](O[C@H]4C[C@H](OC)[C@@H](O)[C@H](C)O4)[C@H](C)O3)[C@@H](C)/C=C/C=C3\CO[C@@H]4[C@@H](O)C(C)=C[C@@H](C(=O)O1)[C@]34O)O2 result="31.3 µM (active)"
smilestext=COc1cc(=C2C=c3ccccc3=N2)[nH]/c1=C/c1[nH]c(C)cc1C result="1.25 µM (active)"

Please give Potency for each item listed below.
1. COC(=O)c1ccc([C@H]2c3[nH]c4ccccc4c3C[C@H](C(=O)OC)N2C(=O)CCl)cc1
2. CC(=O)c1cc2c(o1)C(=O)c1ccccc1C2=O

A.
1. 0.787 µM (active)
2. 0.394 µM (active)

---

# Test system: CP185
# measurementProtocol: qHTS profiling for inhibitors of Plasmodium falciparum proliferation (AID 504749); also: nearly all actives have a fitted effect of over 60% in size
# protocolConditions: P. falciparum in erythrocytes, SYBR Green DNA, 72 h; series mostly up to 28.7 µM
Inconclusive results are not listed. Active and inactive are the calls of the source. Calls come from the whole dose curve; as a rule, active = well fitted inhibition curve with a large enough effect; inconclusive = small, poorly fitted or top-dose-only effect; inactive = flat fitted curve, though single readings scatter.
Respond only with the outcome that fits, drawn from Y (active), N (inactive)

compound=C[C@@]12C(=O)OC(=O)[C@]1(C)[C@H]1CC[C@@H]2O1 qualitativelabel=Y
compound="CN1C(=O)CCC1c1cccnc1 (stereo unspecified)" qualitativelabel=N

Q. Per the records of this test, what outcome belongs to CC(/C=C1\SC(=S)N(CC(=O)O)C1=O)=C\c1ccccc1 ?
A. N

Q. Per the records of this test, what outcome belongs to N[C@H](Cc1ccc(O)c(O)c1)C(=O)O ?
A. N

Q. Per the records of this test, what outcome belongs to CN=C(N)NCCCC(N)C(=O)O (stereo unspecified) ?
A. N

Q. Per the records of this test, what outcome belongs to COc1ccc(CCNC[C@@H](O)c2ccc(O)cc2)cc1OC ?
A. N

---

# targetOrTestSystem: Dual specificity protein kinase CLK4 (Homo sapiens)
# measurementProtocol: qHTS Assay for Inhibitors of CDC-like Kinase 4 (ADP-Glo Assay) (AID 1771); also: nearly all actives have a fitted effect of over 70% in size; also: potency is read from the fitted curve at half-maximal effect
# protocolConditions: recombinant CLK4, ADP-Glo luminescence; series mostly up to 80 µM
Records with an inconclusive call do not appear. Calls of active or inactive are those of the source. Calls come from the whole dose curve; as a rule, active = well fitted inhibition curve with a large enough effect; inconclusive = small, poorly fitted or top-dose-only effect; inactive = flat fitted curve, though single readings scatter.
readoutName: Potency

# example entries with known answers
smilestext=c1csc(CNc2ncnc3ccc(-c4ccoc4)cc23)c1 result="0.355 µM (active)"
smilestext=CN1CCN(c2ncc3nc(-c4ccccc4)c(=O)n(CCc4ccccc4)c3n2)CC1 result=inactive
smilestext=O=c1c(CCc2ccccc2)nc2cnc(N3CCNCC3)nc2n1C1CC1 result=inactive
smilestext=COCCn1c(=O)c(C)nc2cnc(Oc3ccccc3)nc21 result=inactive
smilestext=CNc1cc(-c2ccccc2CN(C)C)ncn1 result=inactive

Please give Potency for each item listed below.
1. O=c1cnc2cnc(N3CCOCC3)nc2n1CCc1ccccc1
2. CCNc1ncc2nc(-c3ccc(OC)cc3)c(=O)n(C[C@H]3CCCO3)c2n1
3. Clc1ccccc1-c1nccc(NCc2cccs2)n1
4. Cn1c(=O)c(CCc2ccccc2)nc2cnc(OCc3ccccc3)nc21
5. CN(C)c1ncc2nc(-c3cc(F)cc(F)c3)c(=O)n(C[C@H]3CCCO3)c2n1

A.
["7.94 µM (active)", "inactive", "inactive", "inactive", "inactive"]

Where do these numbers come from? They come from PubChem BioAssay (NCATS).
